# system: human CTPS1 (Homo sapiens)
# Construct: purchased Proteros biostructures GmbH
# method.description: Human CTPS1 enzyme inhibition (ADP-Glo Max assay)
# Assay type: biochemical
# particulars: Table 17, 25° C., read-out: CTPS1 (Human CTPS1 Enzyme Inhibition data grouped by potency range)
Listing of recorded IC50 by entry.

compound	obs.value
CCC(C(=O)Nc1ccc(-c2cncc(Cl)n2)cc1)c1csc(NS(=O)(=O)C2CC2)n1 (stereo not shown)	< 100 nM
CCC(C(=O)Nc1ccc(-c2cccnc2)cc1)c1csc(NS(=O)(=O)C2CC2)n1 (single isomer, unassigned) [T6]	100 to 1000 nM
COC(C(=O)Nc1ccc(-c2cccnc2)cc1)c1csc(NS(=O)(=O)C2CC2)n1 (stereo not shown)	< 100 nM

# input for lookup
Hey, human CTPS1 (Homo sapiens) data for CCC(C(=O)Nc1ccc(-c2cncc(OC)n2)cn1)c1csc(NS(=O)(=O)C2CC2)n1 (stereo not shown) : IC50 came out at < 100 nM

* * *

# system: human CTPS1 (Homo sapiens)
# Construct: purchased Proteros biostructures GmbH
# method.description: Human CTPS1 enzyme inhibition (ADP-Glo Max assay)
# Format: biochemical
# particulars: Table 18, additional potency data, 25° C., read-out: CTPS1 (Human CTPS1 Enzyme Inhibition data grouped by potency range)
Listing of recorded IC50 by entry.

These solved cases illustrate the format of a correct answer.
molecule	system	IC50
CCOc1cncc(-c2ccc(NC(=O)C(C)(C)c3csc(NS(=O)(=O)C4CC4)n3)nc2)n1	human CTPS1 (Homo sapiens)	< 100 nM
COCCC(C(=O)Nc1ccc(-c2cncc(C(F)(F)F)n2)cc1F)c1csc(NS(=O)(=O)C2CC2)n1 (stereo not drawn)	human CTPS1 (Homo sapiens)	< 100 nM
CCOc1cncc(-c2ccc(NC(=O)C(CC)c3csc(NS(=O)(=O)C4CC4)n3)c(F)c2)n1 (single isomer, unassigned) [T412]	human CTPS1 (Homo sapiens)	< 100 nM

Kindly note the recorded IC50 for `CC(C)(C(=O)Nc1ccc(-c2cncc(Cl)c2)cc1C(F)(F)F)c1csc(NS(=O)(=O)C2CC2)n1` , which is < 100 nM

Kindly note the recorded IC50 for CCOc1cncc(-c2ccc(NC(=O)C(CC)c3csc(NS(=O)(=O)C4CC4)n3)c(OC)c2)n1 (stereo not drawn) , which is < 100 nM

Kindly note the recorded IC50 for CCOc1cncc(-c2cnc(NC(=O)C(CCOC)c3csc(NS(=O)(=O)C4CC4)n3)c(F)c2)n1 (stereo not drawn) , which is < 100 nM

Kindly note the recorded IC50 for CCOc1cncc(-c2ccc(NC(=O)C(OC)c3csc(NS(=O)(=O)C4CC4)n3)cc2)n1 (single isomer, unassigned) [T331] , which is < 100 nM

* * *

# system: human CTPS1 (Homo sapiens, UniProt P17812)
# Construct: purchased Proteros biostructures GmbH
# Sequence (P17812 1-591): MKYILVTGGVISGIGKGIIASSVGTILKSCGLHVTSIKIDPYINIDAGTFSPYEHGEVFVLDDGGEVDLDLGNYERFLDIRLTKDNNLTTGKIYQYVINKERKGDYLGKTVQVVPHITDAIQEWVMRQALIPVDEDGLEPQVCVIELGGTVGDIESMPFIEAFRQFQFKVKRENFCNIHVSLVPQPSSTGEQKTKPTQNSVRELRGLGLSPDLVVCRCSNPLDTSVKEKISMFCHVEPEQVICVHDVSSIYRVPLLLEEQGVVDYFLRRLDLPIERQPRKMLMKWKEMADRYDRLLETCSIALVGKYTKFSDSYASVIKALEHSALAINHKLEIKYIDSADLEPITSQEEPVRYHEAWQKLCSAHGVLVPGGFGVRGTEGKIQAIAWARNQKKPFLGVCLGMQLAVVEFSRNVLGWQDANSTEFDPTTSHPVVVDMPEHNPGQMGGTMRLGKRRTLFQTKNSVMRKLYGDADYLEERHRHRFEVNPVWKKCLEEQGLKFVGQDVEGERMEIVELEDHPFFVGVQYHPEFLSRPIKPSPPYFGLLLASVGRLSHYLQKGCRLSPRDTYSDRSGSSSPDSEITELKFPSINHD
# method.description: Human CTPS1 enzyme inhibition (ADP-Glo Max assay)
# Format: biochemical
# particulars: Table 17, 25° C., read-out: CTPS1 (Human CTPS1 Enzyme Inhibition data grouped by potency range)
pIC50: −log10 of the molar value.
value.type: pIC50

These solved cases illustrate the format of a correct answer.
molecule	obs.value
CCC(C(=O)Nc1ccc(-c2cncc(OC)n2)cc1F)c1csc(NS(=O)(=O)C2CC2)n1 (stereo not shown) [T208]	> 7.00
COCCC(C(=O)Nc1ccc(-c2cncc(OC)c2)cn1)c1csc(NS(=O)(=O)C2CC2)n1 (stereo not shown) [T171]	> 7.00
CCC(C(=O)Nc1ccc(-c2cncc(F)c2)cn1)c1csc(NS(=O)(=O)C2CC2)n1 (stereo not shown) [T179]	> 7.00

Kindly note the recorded pIC50 for CCOc1cncc(-c2ccc(NC(=O)C(CC)c3csc(NS(=O)(=O)C4CC4)n3)cc2)n1 (stereo not shown) [T189] , which is > 7.00

Kindly note the recorded pIC50 for O=C(Cc1nc(NS(=O)(=O)C2CC2)sc1Cl)Nc1ccc(-c2ccccc2)cc1 [T21] , which is 5.00 to 6.00

Kindly note the recorded pIC50 for CCC(C(=O)Nc1ccc(-c2cncc(Cl)c2)cc1)c1csc(NS(=O)(=O)C2CC2)n1 (single isomer, unassigned) [T9] , which is > 7.00

Kindly note the recorded pIC50 for CCC(C(=O)N(C)c1ccc(-c2cncc(C#N)c2)cc1)c1csc(NS(=O)(=O)C2CC2)n1 (stereo not shown) [T316] , which is 6.00 to 7.00

Kindly note the recorded pIC50 for CS(=O)(=O)Nc1nc(CC(=O)Nc2ccc(-c3ccccc3)cc2)cs1 [T1] , which is 5.00 to 6.00

Kindly note the recorded pIC50 for Cc1sc(NS(=O)(=O)C2CC2)nc1C(C)(C)C(=O)Nc1ccc(-c2cncc(C(F)(F)F)n2)cc1 [T17] , which is 6.00 to 7.00

Kindly note the recorded pIC50 for COCCC(C(=O)Nc1ccc(-c2cncc(C(F)(F)F)n2)cn1)c1csc(NS(=O)(=O)C2CC2)n1 (stereo not shown) [T59] , which is > 7.00

Kindly note the recorded pIC50 for CCC(C(=O)Nc1ccc(-c2cncc(OCC(F)(F)F)n2)cc1)c1csc(NS(=O)(=O)C2CC2)n1 (single isomer, unassigned) [T223] , which is > 7.00

Kindly note the recorded pIC50 for CC(C(=O)Nc1ccc(-c2cncc(Cl)c2)cc1)c1csc(NS(=O)(=O)C2CC2)n1 (stereo not shown) [T95] , which is > 7.00
